Data credit: PubChem BioAssay AID1159580

experiment: chemical genetic growth profiling, strain panel (AID 1159580);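 also: tested at 20 µM; growth read once vehicle control cultures reached saturation at 30 °C; 1 = growth at the plate median or of vehicle wells; lower values mean less growth of the strain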; details: S. cerevisiae deletion strains, growth OD, locus YBR023C, strain chs3, active compounds read low
Out of some 5,500 compounds screened, about 2,000 (36%) were called active. Not shown: some 18% with an inconclusive outcome. Some of the results follow.
// normalized growth lookup, one value per entry
Lab note: jot down the number only; don't add units.

CCC(=O)NCC[C@@H]1CCc2ccc3c(c21)CCO3 :: 1.02
O=c1c2cc(O)c(O)cc2oc2cc(O)c(C3O[C@H](CO)[C@H](O)[C@@H](O)[C@H]3O)c(O)c12 (stereo partly specified) :: 1.02

For the compound N#Cc1c(Cl)cccc1Cl , report normalized growth.
0.981

For the compound Oc1ccc2c3c1OC1[C@@H](O)CC[C@@]4(O)[C@@H](C2)N(CC2CCC2)CC[C@]314 (stereo partly specified) , report normalized growth.
0.993

For the compound COC1=CC(C)[C@@H]2C[C@H]3OC(=O)C[C@H]4C(C)=C(OC)C(=O)C([C@@]34C)[C@@]2(C)C1=O (stereo partly specified) , report normalized growth.
0.978

For the compound COc1cc(O)c2c(=O)cc(-c3ccc(OC)c(-c4c(O)cc(O)c5c(=O)cc(-c6ccc(O)cc6)oc45)c3)oc2c1 , report normalized growth.
0.993

For the compound NCCCC(O)(P(=O)(O)O)P(=O)(O)O , report normalized growth.
0.992

For the compound COc1ccc(-c2cc(=O)c3c(OC)c(OC)c(OC)c(OC)c3o2)cc1OC , report normalized growth.
1.01

For the compound O=C(CCCN1CCC(O)(c2ccc(Cl)cc2)CC1)c1ccc(F)cc1 , report normalized growth.
0.919

For the compound CC1CCCC(C)N1NC(=O)c1ccc(Cl)c(S(N)(=O)=O)c1 (stereo unspecified) , report normalized growth.
1.01

For the compound CC(C)=CC1C(CO)C1(C)C (stereo unspecified) , report normalized growth.
1.02

For the compound CC1(C)S[C@@H]2[C@H](NC(=O)[C@@H](N)c3ccc(O)cc3)C(=O)N2[C@H]1C(=O)O , report normalized growth.
0.996
